- experimentSummary: In vivo rat PK, brain exposures
- particulars: adult male rats, oral gavage in water, 3 mg/kg, 1 hr after dosing, read-out: Compound Concentration (ng/g rat brain) 1 hr
parameter: concentration at 1 hr (ng/g)
Use ng/g as the unit, but write only the number.

Per the records, this compound ( c1cc2c(cc1CN1CCOCC1)CC1(CCN(C3CCC3)CC1)O2 ) has concentration at 1 hr equal to 900

* * *

- experimentSummary: In vivo rat PK, brain exposures
- particulars: adult male rats, oral gavage in water, 5 mg/kg, 1 hr after dosing, read-out: Compound Concentration (ng/g rat brain) 1 hr
parameter: concentration at 1 hr

Per the records, this compound ( N#Cc1ccc(-c2ccc3c(c2)CC2(CCN(C4CCC4)CC2)O3)cc1 [Compound 5] ) has concentration at 1 hr equal to 3100 ng/g

Numbers sourced from patent US20120077802A1.
